molecular target: Cdt1 (115-353) (UniProt Q9H211); test: ITC; 25 °C; 25 mM HEPES/NaOH pH 7.5, 150 mM NaCl, 0.5 mM Tris(2-carboxyethyl)phosphine; 28 injections of 10 μl of the protein dimers (2-80 μM) into 1.4 ml of Cdt1 (0.2-10 μM)
Sequence (Q9H211 115-353): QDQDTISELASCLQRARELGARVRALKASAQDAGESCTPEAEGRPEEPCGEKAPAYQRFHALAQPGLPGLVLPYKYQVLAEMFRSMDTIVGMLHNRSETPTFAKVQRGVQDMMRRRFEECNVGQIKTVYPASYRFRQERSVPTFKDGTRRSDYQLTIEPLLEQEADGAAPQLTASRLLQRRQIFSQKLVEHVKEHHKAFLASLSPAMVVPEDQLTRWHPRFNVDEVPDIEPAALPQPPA
RECORDED_ENDPOINT: Kd
Please report the result as a number followed by the unit.

Given item tGeminin-tGeminin homodimer (complex) TQESFDLMIKENPSSQYWKEVAEKRRKALYEALKENEKLHKEIEQKDNEIARLKKENKELAEVAEHVQYMAELIERLNG , the value recorded as its Kd is 3.5 nM
